Organism: Rattus norvegicus
method: DrugMatrix - Regimen: Daily Repeat
Format: toxicity, organism-based, Sprague-Dawley
Set-up: regimen Daily Repeat, gender Male, age 6-8 weeks
measurement setup: in vivo, po, 0 mg/kg, 120 h, tissue Blood, route oral GAVAGE, dose level Control, time 5 day, […]
Field: ABSOLUTE LYMPHOCYTE. Provide a value for each of the compounds that follow.
Numeric only. Scale: CELLS/uL

Field request: ABSOLUTE LYMPHOCYTE | item: Cc1cccc(Nc2ccncc2S(=O)(=O)NC(=O)NC(C)C)c1 [TORSEMIDE] 9065

Proceed to C[C@H]1O[C@@H](O[C@H]2[C@@H](O)C[C@H](O[C@H]3[C@@H](O)C[C@H](O[C@H]4CC[C@@]5(C)[C@H](CC[C@@H]6[C@@H]5CC[C@]5(C)[C@@H](C7=CC(=O)OC7)CC[C@]65O)C4)O[C@@H]3C)O[C@@H]2C)C[C@H](O)[C@@H]1O 11518.33

Proceed to CC/C(=C(/CC)c1ccc(O)cc1)c1ccc(O)cc1 8049.5

Proceed to O=C(O)Cc1ccccc1Nc1c(Cl)cccc1Cl 8546.17

Recorded values, source ChEMBL document CHEMBL3885881.
